- tested-on: μ-opioid receptors (Rattus norvegicus)
- Construct: assayed with a rat brain synaptosomal preparation (P2); from tissue; host or cells: rat brain P2 synaptosomes
- Sequence (P33535 whole entry): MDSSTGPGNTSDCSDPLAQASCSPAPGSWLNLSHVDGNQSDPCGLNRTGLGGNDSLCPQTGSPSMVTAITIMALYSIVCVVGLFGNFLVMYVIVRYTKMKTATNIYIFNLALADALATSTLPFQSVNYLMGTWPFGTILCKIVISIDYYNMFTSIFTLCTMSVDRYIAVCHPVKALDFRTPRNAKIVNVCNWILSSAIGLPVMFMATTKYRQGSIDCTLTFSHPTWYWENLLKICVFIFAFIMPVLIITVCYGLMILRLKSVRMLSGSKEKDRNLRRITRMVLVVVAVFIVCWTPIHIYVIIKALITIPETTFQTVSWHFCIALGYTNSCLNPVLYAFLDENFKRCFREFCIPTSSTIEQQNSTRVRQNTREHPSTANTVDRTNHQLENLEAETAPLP
- experimental-protocol: Rat brain synaptosome (P2) binding, [3H]DAGO (Example 47)
- experimental-conditions: rat brain synaptosomes (P2); mean ± SEM, n in parentheses; read-out: Kiμ (nM) [^3H]DAGO
Non-standard residues stand in square brackets, D forms with d. Residues, ends and D or L forms follow the SMILES beside them. ξ: configuration not given here. *: point of attachment. Dmt = Cc1cc(O)cc(C)c1C[C@H](N)C(=O)O; ξDmt = Cc1cc(O)cc(C)c1CC(N)C(=O)O; Tic = O=C(O)[C@@H]1Cc2ccccc2CN1; NHtBu = CC(C)(C)N*
property-label: Ki (nM)
// note: answer is a bare numeric in nM

{"molecule": "Cc1cc(O)cc(C)c1C[C@@H](C(=O)N1Cc2ccccc2C[C@H]1C(=O)O)n1cccc1 [Compound 5, [des-NH2-α-pyrrole-1-yl]-Dmt-Tic-OH]", "Ki (nM)": 5590}
{"molecule": "Cc1cc(O)cc(C)c1CC(N)C(=O)N1Cc2ccccc2C[C@H]1C(=O)O (stereo partly drawn) [H-(R,S)Dmt-Tic-OH, reference compound] (H-[ξDmt]-[Tic]-OH)", "Ki (nM)": 1160}

Moving on to another molecule below.
// lookup Ki for Cc1cc(O)cc(C)c1C[C@H](N)C(=O)N1Cc2ccccc2C[C@H]1C(=O)N[C@@H](C)C(=O)NC(C)(C)C [Compound 20, H-Dmt-Tic-Ala-NH-tBu] (H-[Dmt]-[Tic]-Ala-NHtBu; N-terminus and C-terminus assumed)
4.03

----------
- tested-on: δ-opioid receptors (Rattus norvegicus, UniProt P33533)
- Construct: assayed with a rat brain synaptosomal preparation (P2); from tissue; host or cells: rat brain P2 synaptosomes
- Sequence (P33533 whole entry): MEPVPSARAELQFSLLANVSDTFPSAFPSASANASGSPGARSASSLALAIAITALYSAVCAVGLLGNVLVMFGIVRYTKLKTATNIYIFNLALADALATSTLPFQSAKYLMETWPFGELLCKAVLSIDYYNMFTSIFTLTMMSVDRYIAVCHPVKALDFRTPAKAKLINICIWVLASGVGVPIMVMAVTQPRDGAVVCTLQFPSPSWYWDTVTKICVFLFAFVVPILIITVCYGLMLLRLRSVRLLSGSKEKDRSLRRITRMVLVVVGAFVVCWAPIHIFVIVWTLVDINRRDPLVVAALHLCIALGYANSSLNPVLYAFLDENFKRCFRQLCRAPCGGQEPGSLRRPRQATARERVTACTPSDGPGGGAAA
- experimental-protocol: Rat brain synaptosome (P2) binding, agonist [3H]DPDPE (Example 47)
- experimental-conditions: selectivity; Kiδ from agonist radioligand [3H]DPDPE
Non-standard residues stand in square brackets, D forms with d. Residues, ends and D or L forms follow the SMILES beside them. Dmt = Cc1cc(O)cc(C)c1C[C@H](N)C(=O)O; Tic = O=C(O)[C@@H]1Cc2ccccc2CN1
Field 'label' (enum: met / not met). Set to met when Agonist K1μ/Kiδ is strictly under 100; else not met.

{"compound": "Cc1cc(O)cc(C)c1C[C@H](N)C(=O)N1Cc2ccccc2C[C@@H]1C(=O)NC12CC3CC(CC(C3)C1)C2", "label": "met"}

API: query returns whether the compound falls strictly under 100 in Agonist K1μ/Kiδ. Query: COC(=O)[C@@H]1Cc2ccccc2CN1C(=O)[C@@H](N)Cc1c(C)cc(O)cc1C [Compound 8, H-Dmt-Tic-OMe] (H-[Dmt]-[Tic]-OMe)
met

API: query returns whether the compound falls strictly under 100 in Agonist K1μ/Kiδ. Query: Cc1cc(O)cc(C)c1C[C@@H](C(=O)N1Cc2ccccc2C[C@H]1C(=O)O)n1cccc1 [Compound 5, [des-NH2-α-pyrrole-1-yl]-Dmt-Tic-OH]
not met

API: query returns whether the compound falls strictly under 100 in Agonist K1μ/Kiδ. Query: COC(=O)[C@H](C)NC(=O)[C@@H]1Cc2ccccc2CN1C(=O)[C@@H](N)Cc1c(C)cc(O)cc1C [Compound 19, H-Dmt-Tic-Ala-OMe] (H-[Dmt]-[Tic]-Ala-OMe)
met
